EXPERIMENT_SUMMARY: recombinant UMI read abundance after kanamycin selection (control-corrected) (log10(CPM+1)); higher = more efficient recombination; extreme values may be limits of the assay; sequences stand for … in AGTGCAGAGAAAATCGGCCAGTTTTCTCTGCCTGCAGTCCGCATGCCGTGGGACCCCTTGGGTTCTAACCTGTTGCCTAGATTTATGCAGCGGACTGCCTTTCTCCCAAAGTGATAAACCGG…AGGTTGGTTTCACT; site = the 11-nt donor;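 note: IS621 bridge recombinase in Escherichia coli cells against a fixed T5 target plasmid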
READOUT_TYPE: recombinant UMI read abundance (log10)
Respond numerically, and do not add a unit to the figure.

[
  {
    "RESIDUE_CODES": "TAATGAACATGGACCGGTTTTCCCGGTAATCCGTATTTGGG (site TAATGACCTCC)",
    "MEASURED_VALUE": 0.0112
  },
  {
    "RESIDUE_CODES": "CAGCTACCATGGACCGGTTTTCCCGGTAATCCGTATTTGCT (site CGGCTACCTAG)",
    "MEASURED_VALUE": 0
  },
  {
    "RESIDUE_CODES": "AGCAATCCATGGACCGGTTTTCCCGGTAATCCGTATTTGAA (site CGCAATCCTTT)",
    "MEASURED_VALUE": 0
  },
  {
    "RESIDUE_CODES": "CGATTATCATGGACCGGTTTTCCCGGTAATCCGTATTTGTT (site CGATCATCTAG)",
    "MEASURED_VALUE": 0
  }
]

Then this sequence:
[in] Given GAAGGAGCATGGACCGGTTTTCCCGGTAATCCGTATTTGTA (site GAAGGAGCTTA) , state its recorded recombinant UMI read abundance (log10).
[out] 2.33

----------
EXPERIMENT_SUMMARY: recombinant UMI read abundance after kanamycin selection (control-corrected) (log10(CPM+1)); higher = more efficient recombination; extreme values may be limits of the assay; sequences stand for … in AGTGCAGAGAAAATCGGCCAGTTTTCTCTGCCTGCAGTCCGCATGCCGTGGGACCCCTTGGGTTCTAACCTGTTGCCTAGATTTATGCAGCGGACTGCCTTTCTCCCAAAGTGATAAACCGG…AGGTTGGTTTCACT; site = the 11-nt donor
Label T when recombinant UMI read abundance (log10) is at or above 0.01; otherwise label F.

[
  {
    "RESIDUE_CODES": "AACCTTTCATGGACCGGTTTTCCCGGTAATCCGTATTTGAC (site AGCCTTTCTGT)",
    "LABEL": "F"
  },
  {
    "RESIDUE_CODES": "CTGGAAACATGGACCGGTTTTCCCGGTAATCCGTATTTGCT (site CTGGAAACTTG)",
    "LABEL": "T"
  },
  {
    "RESIDUE_CODES": "CCCTCCTCATGGACCGGTTTTCCCGGTAATCCGTATTTGGG (site CCCTGCTCTCC)",
    "LABEL": "F"
  }
]

[in] Does the reported recombinant UMI read abundance (log10) for CAATTCTCATGGACCGGTTTTCCCGGTAATCCGTATTTGCT (site CAATTCTCTAG) fall at or above the 0.01 mark?
[out] T

[in] What about this sequence? TAAATACCATGGACCGGTTTTCCCGGTAATCCGTATTTGCG (site TAAATACCTCG)
[out] F

[in] Further, for TAACTACCATGGACCGGTTTTCCCGGTAATCCGTATTTGTT (site TAACTACCTAA) ?
[out] F

[in] Another sequence to look at: GCTACGGCATGGACCGGTTTTCCCGGTAATCCGTATTTGCC (site GCTACCGCTGG)
[out] F

[in] GTTGATCCATGGACCGGTTTTCCCGGTAATCCGTATTTGGT (site GTTGTTCCTAC) , same question.
[out] T

[in] Lookup CTAATGACATGGACCGGTTTTCCCGGTAATCCGTATTTGCA (site CTAATGACTTG)
[out] T
